Test system: Echinochloa crus-galli
Test: Test Example 2: herbicidal effect test by treatment during growing period in paddy rice cultivation (seven days after seeding)
Format: in vivo
Details: 120 g/10a, rated 14 days after treatment, paddy soil pots
readout_type: herbicidal rate, Echinochloa crus-galli (%)

* Cc1c(Cc2ccccc2N(S(=O)(=O)C(F)(F)F)S(=O)(=O)C(F)(F)F)c(=O)on1S(=O)(=O)C(C)C [Compound 1-1064] | 70
* Cc1c(Cc2ccccc2N(S(=O)(=O)C(F)(F)F)S(=O)(=O)C(F)(F)F)c(=O)on1Cc1ccsc1 [Compound 1-1055] | 80
* Cc1ccc(S(=O)(=O)N(c2ccccc2Cc2c(C)n(C(C)C)oc2=O)S(=O)(=O)C(F)(F)F)cc1 [Compound 1-1127] | 100
* Cc1c(Cc2ccccc2N(S(=O)(=O)C(F)(F)F)S(=O)(=O)C(F)(F)F)c(=O)on1Cc1cccs1 [Compound 1-1054] | 90
* Cc1c(Cc2ccccc2N(S(=O)(=O)C(F)(F)F)S(=O)(=O)C(F)(F)F)c(=O)on1CCOCc1ccccc1 [Compound 1-1059] | 90
* Cc1c(Cc2ccccc2N(S(=O)(=O)C(F)(F)F)S(=O)(=O)C(F)(F)F)c(=O)on1C(C)c1ccsc1 (stereo not shown) [Compound 1-1057] | 80
* Cc1c(Cc2ccccc2N(S(=O)(=O)C(F)(F)F)S(=O)(=O)C(F)(F)F)c(=O)on1CCOc1ccccc1 [Compound 1-1058] | 90

* * *

Test system: Amaranthus viridis
Assay: Test Example 4: herbicidal effect test by treatment of leave and stem in dry field farming (seven days after seeding)
Type: in vivo
Details: 120 g/10a active ingredient; emulsion sprayed seven days after seeding; evaluated 14 days after treatment
readout_type: herbicidal effect (herbicidal rate), Amaranthus viridis

• CCC(C)Cn1oc(=O)c(Cc2ccccc2N(C(=O)OCc2ccccc2)S(=O)(=O)C(F)(F)F)c1C (single isomer, unassigned) = 60%
• CCC(CC)Cn1oc(=O)c(Cc2ccccc2NS(=O)(=O)C(F)(F)F)c1C = 60%
• CCC(C)n1oc(=O)c(Cc2ccccc2N(C(=O)C(C)C)S(=O)(=O)C(F)(F)F)c1C (centres unmarked) = 40%
• CCC(C)n1oc(=O)c(Cc2ccccc2N(S(=O)(=O)CC)S(=O)(=O)C(F)(F)F)c1C (centres unmarked) = 40%
• CCC(C)n1oc(=O)c(Cc2ccccc2N(C(=O)OC(C)C)S(=O)(=O)C(F)(F)F)c1C (centres unmarked) = 40%
• Cc1c(Cc2ccccc2NS(=O)(=O)C(F)(F)F)c(=O)on1C1CCCCC1 = 60%
• Cc1c(Cc2ccccc2N(C(=O)CC(C)C)S(=O)(=O)C(F)(F)F)c(=O)on1C(C)c1ccccc1 (centres unmarked) = 40%
• CCC(C)n1oc(=O)c(Cc2ccccc2N(C(=O)Oc2ccccc2)S(=O)(=O)C(F)(F)F)c1C (centres unmarked) = 40%
• COCC(C)n1oc(=O)c(Cc2ccccc2N(C(=O)CC(C)C)S(=O)(=O)C(F)(F)F)c1C (centres unmarked) = 40%
• Cc1c(Cc2ccccc2NS(=O)(=O)C(F)(F)F)c(=O)on1CCC(C)C = 40%
• CCC(C)n1oc(=O)c(Cc2ccccc2N(C(=O)OCc2ccccc2)S(=O)(=O)C(F)(F)F)c1C (single isomer, unassigned) = 40%
• CCC(C)n1oc(=O)c(Cc2ccccc2N(C(=O)OCC2CCCO2)S(=O)(=O)C(F)(F)F)c1C (centres unmarked) = 40%
• Cc1c(Cc2cc(F)ccc2N(S(=O)(=O)C(F)(F)F)S(=O)(=O)C(F)(F)F)c(=O)on1Cc1ccccc1 = 40%
• Cc1c(Cc2ccccc2N(S(=O)(=O)C(F)(F)F)S(=O)(=O)C(F)(F)F)c(=O)on1C1CCCCC1 = 50%
• CC(=O)N(c1ccccc1Cc1c(C)n(C(C)c2ccccc2)oc1=O)S(=O)(=O)C(F)(F)F (centres unmarked) = 40%
• CCC(C)Cn1oc(=O)c(Cc2ccccc2N(S(C)(=O)=O)S(=O)(=O)C(F)(F)F)c1C (centres unmarked) = 50%
• CCCC(c1ccccc1)n1oc(=O)c(Cc2ccccc2N(S(=O)(=O)C(F)(F)F)S(=O)(=O)C(F)(F)F)c1C (centres unmarked) = 40%
• CCN(CC)C(=O)n1oc(=O)c(Cc2ccccc2NS(=O)(=O)C(F)(F)F)c1C = 40%
• Cc1c(Cc2ccccc2N(S(=O)(=O)C(F)(F)F)S(=O)(=O)C(F)(F)F)c(=O)on1CCC(C)(C)C = 50%
• CCCC(C)n1oc(=O)c(Cc2ccccc2N(C(=O)CC(C)C)S(=O)(=O)C(F)(F)F)c1C (centres unmarked) = 60%
• CCCCC(c1ccccc1)n1oc(=O)c(Cc2ccccc2N(S(=O)(=O)C(F)(F)F)S(=O)(=O)C(F)(F)F)c1C (centres unmarked) = 60%
• CCOC(=O)N(c1ccccc1Cc1c(C)n(C(C)COC)oc1=O)S(=O)(=O)C(F)(F)F (centres unmarked) = 40%
• Cc1c(Cc2ccccc2N(S(C)(=O)=O)S(=O)(=O)C(F)(F)F)c(=O)on1C(C)(C)C = 40%
• Cc1c(Cc2ccccc2N(C(=O)C2CC2)S(=O)(=O)C(F)(F)F)c(=O)on1C(C)(C)C = 40%
• CCC(C)n1oc(=O)c(Cc2ccccc2N(C(=O)COC)S(=O)(=O)C(F)(F)F)c1C (centres unmarked) = 40%
• Cc1c(Cc2ccccc2N(C(=O)OCc2ccccc2)S(=O)(=O)C(F)(F)F)c(=O)on1CC(C)C = 40%
• CCOC(=O)N(c1ccccc1Cc1c(C)n(CCSC)oc1=O)S(=O)(=O)C(F)(F)F = 40%
• Cc1c(Cc2ccccc2N(C(=O)C2CC2)S(=O)(=O)C(F)(F)F)c(=O)on1C(C)c1ccccc1 (centres unmarked) = 40%
• Cc1c(Cc2ccccc2N(C(=O)C2CC2)S(=O)(=O)C(F)(F)F)c(=O)on1CC(C)(C)C = 40%
